- assayedTarget: UniProtKB P08908
- Sequence (P08908 whole entry): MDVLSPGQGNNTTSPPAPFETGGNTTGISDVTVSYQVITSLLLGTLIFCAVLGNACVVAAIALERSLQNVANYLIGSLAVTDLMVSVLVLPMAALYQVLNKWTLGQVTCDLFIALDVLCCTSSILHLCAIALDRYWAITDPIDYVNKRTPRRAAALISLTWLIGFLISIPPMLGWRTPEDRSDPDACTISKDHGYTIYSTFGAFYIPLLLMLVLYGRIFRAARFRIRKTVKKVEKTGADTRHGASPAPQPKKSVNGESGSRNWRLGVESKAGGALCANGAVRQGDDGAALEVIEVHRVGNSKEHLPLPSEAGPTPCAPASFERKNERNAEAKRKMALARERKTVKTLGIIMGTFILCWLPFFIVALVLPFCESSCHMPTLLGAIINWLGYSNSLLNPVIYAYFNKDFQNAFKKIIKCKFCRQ
- assayName: Displacement of [3H]-8-OH-DPAT from 5HT1A receptor (unknown origin) expressed in HEK293 cells membranes at 10 uM incubated for 60 mins by scintillation counting method relative to control
- Type: cell membranes
observedProperty: inhibition (%)

[[record]]
cpdsmiles = "Fc1ccc(N2CCN(CCCc3c[nH]c4ccc(F)cc34)CC2)c(-c2cc[nH]c2)c1"
readoutunit = "%"
recordednumber = 97.4

[[record]]
cpdsmiles = "Fc1ccc(N2CCN(CCCc3c[nH]c4ccc(F)cc34)CC2)c(-c2cccnc2)c1"
readoutunit = "%"
recordednumber = 99.1

[[record]]
cpdsmiles = "Fc1ccc2c(C3CCN(CCCc4c[nH]c5ccc(F)cc45)CC3)noc2c1"
readoutunit = "%"
recordednumber = 101

[[record]]
cpdsmiles = "Fc1ccc2[nH]cc(CCCCN3CCN(c4nsc5ccccc45)CC3)c2c1"
readoutunit = "%"
recordednumber = 101

[[record]]
cpdsmiles = "Fc1ccc(N2CCN(CCCc3c[nH]c4ccc(F)cc34)CC2)c(-c2cncnc2)c1"
readoutunit = "%"
recordednumber = 98.8

